Give IC50 for every item shown.
Biological target: wt human TYK2, catalytic site (Homo sapiens)
Construct: wt human TYK2, catalytic site
Sequence (P29597 897-1176 limits assumed): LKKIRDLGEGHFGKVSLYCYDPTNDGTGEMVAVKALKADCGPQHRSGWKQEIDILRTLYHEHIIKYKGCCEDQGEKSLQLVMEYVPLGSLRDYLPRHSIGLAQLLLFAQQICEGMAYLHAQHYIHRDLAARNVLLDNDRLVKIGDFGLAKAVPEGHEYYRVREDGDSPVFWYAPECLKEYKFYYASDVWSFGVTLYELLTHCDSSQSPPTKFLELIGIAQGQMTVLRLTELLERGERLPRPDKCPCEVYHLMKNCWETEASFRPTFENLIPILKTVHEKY
Test: HTRF KinEASE assay, TYK2
Conditions: 1 μM ATP; read-out: IC50, Activity Toward TYK2

Give IC50 for N#Cc1cc(Cl)c(-n2nc(Nc3ccc(C(=O)N4CCC(F)C4)cc3)c(C(N)=O)n2)c(Cl)c1 (stereo in doubt)
10 to 100 nM

Give IC50 for NC(=O)c1nn(-c2c(F)cccc2F)cc1Nc1ccc(C(=O)NCC(F)(F)F)cc1
10 to 100 nM

Give IC50 for COCc1nc(C(F)(F)F)nn1-c1ccc(Nc2cn(-c3c(Cl)cccc3Cl)nc2C(N)=O)cn1
100 to 1000 nM

Give IC50 for COCCNC(=O)c1ccc(Nc2nn(-c3c(Cl)cccc3Cl)nc2C(N)=O)cc1
10 to 100 nM

Give IC50 for NC(=O)c1nn(-c2c(Cl)cccc2Cl)cc1Nc1ccc(-n2ccccc2=O)nc1
100 to 1000 nM

Give IC50 for Cc1ccnnc1-c1ccc(Nc2cn(-c3c(Cl)cccc3Cl)nc2C(N)=O)cc1
< 10 nM

Give IC50 for NC(=O)c1nn(-c2c(Cl)ccc(F)c2Cl)nc1Nc1ccc(C(=O)N2CCOCC2)cc1
10 to 100 nM

Give IC50 for CC(C)(C)C(=O)c1ccc(Nc2cn(-c3c(F)cccc3Cl)nc2C(N)=O)cc1
< 10 nM

Give IC50 for CN=S1(=O)CCN(C(=O)c2ccc(Nc3cn(-c4c(Cl)cccc4Cl)nc3C(N)=O)cc2)CC1
< 10 nM

Give IC50 for NC(=O)c1nn(-c2c(Cl)cccc2Cl)cc1Nc1ccc(C(=O)N2CC(F)(F)C(F)(F)C2)cn1
100 to 1000 nM

Give IC50 for N#Cc1cccc(Cl)c1-n1cc(Nc2ccc(C(=O)N3CC[C@@H](F)C3)cc2)c(C(N)=O)n1
< 10 nM

Give IC50 for NC(=O)c1nn(-c2c(F)cccc2Cl)cc1Nc1ccc(-c2nnc3n2CCCC3)cc1
< 10 nM

Give IC50 for NC(=O)c1nn(-c2c(Cl)cccc2Cl)cc1Nc1ccc(-n2cncn2)nc1
100 to 1000 nM

Give IC50 for NC(=O)c1nn(-c2c(Cl)cccc2Cl)cc1Nc1ccc(C(=O)N2CC[C@H](N)C2)cc1
10 to 100 nM

Give IC50 for CC(=O)N1CC(n2cc(C(F)(F)F)nc2-c2ccc(Nc3cn(-c4c(Cl)cccc4Cl)nc3C(N)=O)cc2)C1
< 10 nM

###

target: wt human TYK2, catalytic site (Homo sapiens); construct: wt human TYK2, catalytic site; assay: HTRF KinEASE assay, TYK2; settings: 1 μM ATP; read-out: IC50, Activity Toward TYK2
pIC50: −log10 of the molar value.
MEASURED ATTRIBUTE: pIC50

Give pIC50 for Cc1cccc2ncc(-c3ccc(Nc4cn(-c5c(Cl)cccc5Cl)nc4C(N)=O)cn3)n12
7.00 to 8.00

Give pIC50 for Cn1ncc(Nc2cn(-c3c(Cl)cccc3Cl)nc2C(N)=O)n1
6.00 to 7.00

Give pIC50 for CP(C)(=O)c1ccc(Nc2cn(-c3c(F)cccc3F)nc2C(N)=O)cc1
6.00 to 7.00

Give pIC50 for CCc1nc(C(F)(F)F)nn1-c1ccc(Nc2cn(-c3c(Cl)cccc3Cl)nc2C(N)=O)cn1
6.00 to 7.00

Give pIC50 for COc1ccccc1-c1ccc(Nc2cn(-c3c(Cl)cccc3Cl)nc2C(N)=O)cn1
6.00 to 7.00

Give pIC50 for Cc1nnnn1-c1ccc(Nc2cn(-c3c(Cl)cccc3Cl)nc2C(N)=O)cc1
> 8.00

Give pIC50 for CCc1cnncc1-c1ccc(Nc2cn(-c3c(Cl)cccc3Cl)nc2C(N)=O)cc1
7.00 to 8.00

Give pIC50 for Cn1cnnc1-c1ccc(Nc2cn(-c3c(Cl)cccc3Cl)nc2C(N)=O)cc1
> 8.00

Give pIC50 for CC(C)n1cc(Nc2cn(-c3c(Cl)cccc3Cl)nc2C(N)=O)cn1
7.00 to 8.00

Give pIC50 for NC(=O)c1nn(-c2c(Cl)cccc2Cl)cc1Nc1ccc(C(=O)N2CC[C@@H](F)C2)cn1
7.00 to 8.00

Give pIC50 for NC(=O)c1nn(-c2c(Cl)cccc2Cl)cc1Nc1ccc(-c2nnc3cccc(C(F)(F)F)n23)nc1
6.00 to 7.00

Give pIC50 for NC(=O)c1nn(-c2c(Cl)cccc2Cl)cc1Nc1ccc(-c2ccnnc2)nc1
6.00 to 7.00

Give pIC50 for CN(C)C1CCN(C(=O)c2ccc(Nc3nn(-c4c(Cl)cccc4Cl)nc3C(N)=O)cc2)CC1
> 8.00

Give pIC50 for COCCc1ncnn1-c1ccc(Nc2cn(-c3c(Cl)cccc3Cl)nc2C(N)=O)cc1
7.00 to 8.00

Give pIC50 for Cc1ccn(-c2ccc(Nc3cn(-c4c(Cl)cccc4Cl)nc3C(N)=O)cc2)n1
6.00 to 7.00

Give pIC50 for CCN(CC)CCNC(=O)c1ccc(Nc2cn(-c3c(Cl)cccc3Cl)nc2C(N)=O)cc1
7.00 to 8.00

Give pIC50 for N#CC1CN(C(=O)c2ccc(Nc3cn(-c4c(Cl)cccc4Cl)nc3C(N)=O)cc2)C1
> 8.00

Give pIC50 for NC(=O)c1nn(-c2c(Cl)cccc2Cl)cc1Nc1ccc(-n2nc(C(F)(F)F)nc2CO)cc1
> 8.00

Give pIC50 for CC(C)c1ccn(-c2ccc(Nc3cn(-c4c(Cl)cccc4Cl)nc3C(N)=O)cc2)n1
6.00 to 7.00

Give pIC50 for NC(=O)c1nn(-c2c(F)cccc2Cl)cc1Nc1ccc(-n2ncc3c2CCOC3)cc1
7.00 to 8.00

Give pIC50 for CN1CCC(Oc2ccc(Nc3nn(-c4c(Cl)cccc4Cl)nc3C(N)=O)cc2)CC1
> 8.00

Give pIC50 for Cc1cc2nnc(-c3ccc(Nc4cn(-c5c(Cl)cccc5Cl)nc4C(N)=O)cn3)n2c(C)n1
6.00 to 7.00

Give pIC50 for CN=S1(=O)CCN(C(=O)c2ccc(Nc3nn(-c4c(Cl)cccc4Cl)nc3C(N)=O)cc2)CC1
> 8.00

Give pIC50 for CN1CCC(Oc2ccc(Nc3cn(-c4c(Cl)cccc4Cl)nc3C(N)=O)cn2)CC1
6.00 to 7.00

Give pIC50 for CC(C)c1nnnn1-c1ccc(Nc2cn(-c3c(Cl)cccc3Cl)nc2C(N)=O)cn1
6.00 to 7.00

Give pIC50 for Cc1nc2cc(Nc3cn(-c4c(Cl)cccc4Cl)nc3C(N)=O)ccc2n1C
6.00 to 7.00

Give pIC50 for NC(=O)c1nn(-c2c(Cl)cccc2Cl)nc1Nc1ccc(-c2nc(C(F)(F)F)cn2CCO)cc1
> 8.00

Give pIC50 for Cc1csc2nnc(-c3ccc(Nc4cn(-c5c(Cl)cccc5Cl)nc4C(N)=O)cn3)n12
6.00 to 7.00

Give pIC50 for N#CC1CN(C(=O)c2ccc(Nc3cn(-c4c(Cl)cccc4Cl)nc3C(N)=O)nc2)C1
7.00 to 8.00

Give pIC50 for NC(=O)c1nn(-c2c(Cl)cccc2Cl)cc1Nc1ccc(C(=O)N2CCCC2)nc1
7.00 to 8.00

Give pIC50 for NC(=O)c1nn(-c2c(Cl)cccc2Cl)cc1Nc1cnn(CC(=O)N2CCOCC2)c1
7.00 to 8.00

Give pIC50 for CN(C)[C@@H]1CCN(C(=O)c2ccc(Nc3cn(-c4c(Cl)cccc4Cl)nc3C(N)=O)cc2)C1
7.00 to 8.00

Hello, the source for this data is patent US20230373985A1, in case you need it.
